Hey, just so you know, these numbers are from the RNAGym collection of RNA variant scans (doi:10.7554/elife.80360).

B1: Twister Ribozyme (parent)
chain: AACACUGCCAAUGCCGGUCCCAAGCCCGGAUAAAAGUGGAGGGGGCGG

- Variants of: B1
- Test: self-cleavage, relative activity (ratio to wild type); higher = more cleavage; co-transcriptional
Kindly state self-cleavage for each of the entries shown.
Please give the numeric answer without any surrounding text.

Please report the recorded self-cleavage for AACACUUCCAAUGUCGGUCCCAAGCCCGGAUAAAAGUGGAGGGGGCGG [G7U C14U] .
0.0997

Recorded self-cleavage for AACACUGCCAAUGCCGGUCCCAAGCCCGGAUACAAGUGGAGCGGGCGG [A33C G42C] , please?
0.19

Endpoint output: self-cleavage of AACACUGCCAAUGCCGGUCCCAAGUGCGGAUAAAAGUGGAGGGGGCGG [C25U C26G] . Value?
0.131

Which self-cleavage reading was recorded for the variant AACACUGCCAUUACCGGUCCCAAGCCCGGAUAAAAGUGGAGGGGGCGG [A11U G13A] ?
0.95

Item AACAGUGCCAAUGCCGGUCCCAAGCCCGGAUAAAAGUGGAGGGGGCAG [C5G G47A] has what recorded self-cleavage?
0.547

Look at this variant and give its reported self-cleavage. AACCCUGCCAAUGCCGGUCCCAAGCCAGGAUAAAAGUGGAGGGGGCGG [A4C C27A]
0.0944

Any idea what self-cleavage was measured for AACACUGCCAAUACCGGGCCCAAGCCCGGAUAAAAGUGGAGGGGGCGG [G13A U18G] ?
0.0757

# query: self-cleavage of entry AACACUGCCAAUACCGGUCCCAAGCCCGGAUAAAAGUGGAGGGGCCGG [G13A G45C]
0.229

Fill in the blank: the reported self-cleavage of AACACUGCCCAUGCCGGUCCGAAGCCCGGAUAAAAGUGGAGGGGGCGG [A10C C21G] is ____.
0.0689

Which self-cleavage is listed for AACACUGCCAAUGCCGGUCCCAAGCCCGGUAAAAAGUGGAGGGGGCGG [A30U U31A] ?
0.931

Query (variant): AACACUGCCAAUGCCGGUCCCAAGCGCGGAUAAAAGUGAAGGGGGCGG [C26G G39A] ; field requested: self-cleavage
0.0939

Returns the measured self-cleavage for the input variant. Input: AACACUGCCAAUGCCGGUCCCAAGCCCGGAUAAAAGUGGGGGGGGCCG [A40G G47C]
0.192

# lookup: self-cleavage of AAAACUGCCAAUGCCGGUCCCAAGCCCGGAUAAAAGCGGAGGGGGCGG [C3A U37C]
0.193

What value of self-cleavage has been recorded for this entry: AACACUGCCAAUGCCGGUCCCAUGCCCGGAUAAGAGUGGAGGGGGCGG [A23U A34G]
0.0731

So what does the record say about self-cleavage for AACACUGCCAAUGCCGGUCCCAAGCCCGGAUCCAAGUGGAGGGGGCGG [A32C A33C] ?
0.767

GET /values?readout=self-cleavage&item= AACACUGCCAAUGCCGCUCCCAAGCCCGGAUAAUAGUGGAGGGGGCGG [G17C A34U]
0.0853

Entry under review: AACACUGCCAAUGCCGAUCCCAAGCCCGGAUAGAAGUGGAGGGGGCGG [G17A A33G] . Reported self-cleavage?
0.451

Name the recorded self-cleavage for AACACUGCGAAUGCCGGUCCCCAGCCCGGAUAAAAGUGGAGGGGGCGG [C9G A22C] .
0.708

Request the reported self-cleavage associated with AACACUGCCAAUGCCGGUACCAAGCCCGGAUAAAAGAGGAGGGGGCGG [C19A U37A]
0.0721

Give the measured self-cleavage of AACACUGCCAAUGCCGGUCCCAAGCCCGGAUAAAAGUGGAGCGGGCCG [G42C G47C] .
0.467

Find the recorded self-cleavage belonging to AACACUGCCAAUGUCGGUCCCAAGCCCGGAUAAAAGUGGAGGGUGCGG [C14U G44U] and report it.
1.15

Which value of self-cleavage has been reported for AACACUGCCGAUGCCGGUCCCAAGCCCGGAUAAAAGUGAAGGGGGCGG [A10G G39A] in the records?
0.564
